Numbers sourced from PubChem BioAssay.

test: compound effects on differentiated 3T3-L1 adipocyte viability – cell-based, 3T3-L1 adipocytes, calcein-AM fluorescence, 48 h, basal, profiling panel (AID 1163); conditions: 3T3-L1 adipocytes viability, higher = more signal; also: test concentration not given here
Hi! Just check whether z-score is below -0.4. Below gives rule met, equal or above gives rule not met.

Compound	Class Name
C=CCOC(=O)[C@H]1[C@@H]2C(=O)O[C@@H](c3ccccc3)[C@@H](c3ccccc3)N2[C@@H](c2ccc(OCCOC(=O)[C@@H]3C[C@@H]4C(=O)N[C@@H](CCCC[N+](C)(C)C)C(=O)N4[C@@H]3c3ccc(O)cc3)cc2)[C@]12C(=O)Nc1ccc(I)cc12	rule not met
O=C1OCCC=C[C@H]2OC34C=CCN(c5ccc6ccccc6c5)C(=O)[C@H]3N(CCO)C(=O)[C@@H]4C12 (some centres not stated)	rule met
COc1cc(CO)cc(I)c1O[C@H]1C=C(C(=O)NCCO)C[C@@H]2O[C@H]12	rule not met
COC(=O)C(CC#Cc1ccc2c(c1)[C@]1(C(=O)N2)[C@H](C(=O)N2CCc3cc(OC)c(OC)cc3C2)[C@H]2C(=O)O[C@H](c3ccccc3)[C@H](c3ccccc3)N2[C@@H]1c1ccccc1OCCO)C(=O)OC	rule met
COC(=O)[C@@]1(Cc2ccccc2)[C@H]2c3cc(C(=O)N(C)C)n(CCSC(=N)N)c3C[C@H]2CN1C(=O)c1ccccc1	rule not met
N#Cc1ccc(NN2C(C(O)C3CC=CCC3)C=CC3C(=O)N(c4ccccc4)C(=O)C32)cc1 (configuration not stated)	rule met
CCOC(=O)C[C@H]1[C@H](OC(=O)c2ccccc2-c2ccccc2)[C@@H](NC(=O)c2ccc3ccccc3c2)c2cc(OCCCO)ccc2N1C(=O)Cc1ccc(OC)cc1	rule not met
O=C(NCc1ccccc1)[C@@H]1c2ccccc2C(=O)N(Cc2cc(C(F)(F)F)cc(C(F)(F)F)c2)[C@H]1c1ccc(CO)cc1	rule not met
CCCCCCc1nc(Cc2cc(OC)c(OC)c(OC)c2)cc2c1[Si](C(C)C)(C(C)C)O[C@H]2c1ccccc1	rule not met
CCCNC(=O)[C@@]1(Sc2ccc(C)cc2)CC(=O)N(Cc2ccccc2Cl)[C@@H]1c1ccc(CO)cc1I	rule not met
COc1cc(C(O)C2C=CC3C(=O)N(c4ccccc4)C(=O)C3N2Nc2ccccc2F)cc(OC)c1OC (configuration not stated)	rule met
COC(=O)C(CC#Cc1ccc2c(c1)[C@]1(C(=O)N2)[C@H](c2ccccc2OCCO)N2[C@H](c3ccccc3)[C@H](c3ccccc3)OC(=O)[C@H]2[C@@H]1C(=O)N1CCc2cc(OC)c(OC)cc2C1)C(=O)OC	rule not met
COC(=O)[C@]1(Cc2ccccc2)N=C(c2ccc(OCCCO)cc2)O[C@@H]1c1ccccc1CN=[N+]=[N-]	rule not met
COCCCNC(=O)[C@@H]1c2ccccc2C(=O)N(Cc2ccc(OC(F)(F)F)cc2)[C@H]1c1ccc(CO)cc1	rule met
CC(C)NC(=O)[C@@]1(c2ccc([N+](=O)[O-])cc2)CC(=O)N(CC23CC4CC(CC(C4)C2)C3)[C@@H]1c1ccc(CO)cc1	rule not met
C=CCC(OC(C)=O)[C@@H]1[C@@H](N(Cc2cc3ccccc3o2)C(=O)c2cccc3ccccc23)c2cc(OCCCO)ccc2N1C(=O)c1ccc2ccccc2n1 (some centres not stated)	rule not met
COC(=O)[C@]1(CCC(=O)OC(C)(C)C)N=C(c2ccc(OCCCO)cc2)O[C@@H]1c1ccccc1N=[N+]=[N-]	rule not met
[N-]=[N+]=Nc1ccccc1[C@@H]1OC(c2ccc(OCCCO)cc2)=N[C@]1(CCS(=O)(=O)c1ccccc1)C(=O)NCC(O)CO (some centres not stated)	rule not met
Cc1ccc(S[C@]2(C(=O)NCCCN(C)C)CC(=O)N(Cc3ccccc3C(F)(F)F)[C@@H]2c2ccc(CO)cc2I)cc1	rule not met
CCOC(=O)C[C@H]1[C@H](OC(=O)Cc2ccc3c(c2)OCO3)[C@@H](NC(=O)Cc2ccc(OC)cc2)c2cc(OCCCO)ccc2N1C(=O)Cc1ccc(OC)cc1	rule not met
O=C1N(Cc2ccccc2)c2ccccc2C[C@@]12COC(c1ccc(OCCCO)cc1)=N2	rule not met
O=C1C2C=CC(C(O)C3CCCCC3)N(n3cnnc3)C2C(=O)N1Cc1ccccc1 (configuration not stated)	rule not met
O=C1NC(=O)C2C1C=CC(C(O)c1ccc([N+](=O)[O-])cc1)N2Nc1ccccn1 (configuration not stated)	rule not met
O=C1NC(=O)C2C1C=CC(C(O)c1ccc(B(O)O)cc1)N2Nc1ccc(Cl)cc1Cl (configuration not stated)	rule met
C=C(COC)C(=O)CC[C@H](OC(=O)c1cccnc1)c1ccc(OCCO)cc1	rule not met
